# Lookup of reported glycan array binding signal (z-score) keyed by entry
Biological target: Fuc(a1-2)Gal3S(b1-4)GlcNAc
Test: glycan array binding signal (z-score within array); higher = stronger binding
Conditions: glycan notation: IUPAC condensed, linker removed
About 410 targets per protein were measured; listed, in parts, are those with the strongest signals and a random draw of the rest.

# BINDER, glycan array binding signal (z-score)
records = [
    ("PNA (Arachis hypogaea), P02872 (protein) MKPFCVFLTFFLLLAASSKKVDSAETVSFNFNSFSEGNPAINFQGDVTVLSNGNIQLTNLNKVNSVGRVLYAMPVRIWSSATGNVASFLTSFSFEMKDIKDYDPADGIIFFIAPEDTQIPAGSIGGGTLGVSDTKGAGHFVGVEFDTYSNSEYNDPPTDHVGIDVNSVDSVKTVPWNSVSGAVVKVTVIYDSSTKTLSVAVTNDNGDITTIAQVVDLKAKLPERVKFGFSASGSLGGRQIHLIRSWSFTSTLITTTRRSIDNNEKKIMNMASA", -0.183),
    ("DBA (Dolichos biflorus) (protein) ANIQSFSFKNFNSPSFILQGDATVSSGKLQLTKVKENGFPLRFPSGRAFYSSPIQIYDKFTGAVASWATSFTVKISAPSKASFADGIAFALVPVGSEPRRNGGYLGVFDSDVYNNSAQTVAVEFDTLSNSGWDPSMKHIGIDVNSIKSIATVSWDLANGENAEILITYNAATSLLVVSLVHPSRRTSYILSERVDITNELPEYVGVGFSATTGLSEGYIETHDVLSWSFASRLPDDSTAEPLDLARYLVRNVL", -0.041),
    ("MpAFP NterminalRI GFP (Marinomonas primoryensis) (protein) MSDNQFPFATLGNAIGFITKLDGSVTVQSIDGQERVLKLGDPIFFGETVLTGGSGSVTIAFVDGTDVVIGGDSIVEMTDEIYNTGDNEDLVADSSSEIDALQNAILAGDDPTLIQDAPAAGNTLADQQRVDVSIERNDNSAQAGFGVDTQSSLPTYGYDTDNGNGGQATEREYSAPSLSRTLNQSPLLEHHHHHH", -0.495),
    ("RsaA-N-term (Caulobacter crescentus), P35828 (protein) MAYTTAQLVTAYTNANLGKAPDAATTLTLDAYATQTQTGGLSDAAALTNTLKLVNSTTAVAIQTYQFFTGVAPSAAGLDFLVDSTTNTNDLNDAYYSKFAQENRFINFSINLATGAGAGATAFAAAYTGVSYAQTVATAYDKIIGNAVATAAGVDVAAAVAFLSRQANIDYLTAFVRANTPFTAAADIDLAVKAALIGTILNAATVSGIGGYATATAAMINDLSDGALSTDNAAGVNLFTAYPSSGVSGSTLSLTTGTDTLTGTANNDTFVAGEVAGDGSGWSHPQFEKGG", -0.243),
]
